biological target: LXR β LBD protein (Homo sapiens (Human)); assay: biochemical; type: binding; conditions: read-out: LXRβ Binding Ki
Sequence (P55055 222-460 limits assumed): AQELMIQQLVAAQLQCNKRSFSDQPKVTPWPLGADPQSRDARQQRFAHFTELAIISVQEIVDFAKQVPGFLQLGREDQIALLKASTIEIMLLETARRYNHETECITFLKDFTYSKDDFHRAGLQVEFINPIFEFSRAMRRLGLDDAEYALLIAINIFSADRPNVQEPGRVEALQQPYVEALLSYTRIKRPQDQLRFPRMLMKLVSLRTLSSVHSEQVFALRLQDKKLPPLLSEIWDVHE
pKi: −log10 of the molar value.
Listed compounds paired with reported pKi

| compound | pKi |
| --- | --- |
| NS(=O)(=O)c1cccc(N2CCN(C[C@H]3CC[C@@H](C(F)F)CC3)[C@H](c3ccccc3)C2)c1 (single isomer, unassigned) | 6.04 |
| Cc1nc(N2CCN(c3ccc(F)c(S(C)(=O)=O)c3)C[C@H]2C(C)C)ncc1C(F)(F)F | 8.52 |
| CS(=O)(=O)c1cccc(N2CCN(Cc3ccc(C(F)(F)F)cc3)[C@@H](c3ccccc3)C2)c1 (single isomer, unassigned) | 6.80 |
| Cc1ccc(C2CC2)nc1N1CCN(c2cccc(S(C)(=O)=O)c2)C[C@H]1C(C)C | 7.21 |
| CCOC(=O)c1cnc(N2CCN(c3cccc(S(C)(=O)=O)c3)C[C@H]2c2nc(C)cs2)nc1C(F)(F)F | 6.18 |
| CC(C)[C@@H]1CN(c2ccc(F)c(S(C)(=O)=O)c2)CCN1c1nccc(C(N)=O)n1 | 6.31 |
| CC(C)[C@@H]1CN(c2cccc(S(C)(=O)=O)c2)CCN1c1nccc(OC(F)F)n1 | 7.46 |
